Entry source: paper PMC10487436

# System: SNB-19 (human glioblastoma)
# ASSAY OVERVIEW: WST-1 proliferation assay, SNB-19
# Assay type: cell-based
# MEASUREMENT CONDITIONS: Homo sapiens, SNB-19, 72 h exposure
Exercise: for every item that follows, state its recorded IC50.

**Query** Need IC50, item `Nc1ccc(OCc2cn(Cc3ccc([N+](=O)[O-])cc3)nn2)cc1`
**Result** > 100 µM

**Query** Do the same for `Nc1ccc(OCc2cn(Cc3ccccc3)nn2)cc1` please
**Result** > 100 µM

**Query** Let us now turn to `C[n+]1cc2c(c3ccccc31)Nc1cc(OCc3cn(CSc4ccccc4)nn3)ccc1S2`
**Result** 6.1 µM

**Query** Same read-out for `C[n+]1cc2c(c3ccccc31)Nc1c(OCc3cn(Cc4ccccc4)nn3)cccc1S2` ?
**Result** 8.5 µM

**Query** And COc1cccc2c1C(=O)c1c(O)c3c(c(O)c1C2=O)C[C@@](O)(C(=O)CO)C[C@@H]3O[C@H]1C[C@H](N)[C@H](O)[C@H](C)O1 [DOX, doxorubicin, reference compound] ?
**Result** 1.7 µM

* * *

# Test system: methicillin-resistant S. aureus SA 630
# ASSAY OVERVIEW: MIC, microtitration broth method, MRSA2
# Assay type: cell-based
# MEASUREMENT CONDITIONS: Staphylococcus aureus; 24 h at 37 °C
READOUT: MIC

**Query** Which MIC value belongs to `C[n+]1cc2c(c3ccccc31)Nc1cc(OCc3cn(-c4ccc(Cl)cc4)nn3)ccc1S2` ?
**Result** > 524 µM

**Query** Again, but for CC1(C)S[C@@H]2[C@H](NC(=O)[C@H](N)c3ccccc3)C(=O)N2[C@H]1C(=O)O [AMP, ampicillin, reference compound]
**Result** > 45.8 µM

**Query** Item: `C=CCn1cc(COc2ccc3c(c2)Nc2c(c[n+](C)c4ccccc24)S3)nn1`
**Result** > 524 µM

**Query** And the next one, `C[n+]1cc2c(c3ccccc31)Nc1c(OCc3cn(Cc4ccccc4)nn3)cccc1S2` ?
**Result** > 524 µM
